Assay: GHS categories as the set defines them, by LD50: 1 up to 5, 2 up to 50, 3 up to 300, 4 up to 2000, 5 above 2000 mg/kg
Details: rat; in vivo; po
Text: […]The data set underlying the modeling effort for this project was initially compiled by NICEATM and U.S. EPA’s CCTE. Briefly, LD50 data were collected from rat acute oral systemic toxicity tests, including limit tests, ranges/confidence intervals, and discrete LD50 values. The full data set included 21,200 LD50 entries for 15,688 substances. […]
What GHS category was measured for each of the following?
Give the value as a plain number.

# query: GHS category of entry `CCOC(=O)Oc1ccc(C2(c3ccc(OC(=O)OCC)cc3)C(=O)Nc3c(C)cccc32)cc1`
5

# query: GHS category of entry CC(C)=CCN(CC=C(C)C)CCC(C#N)(CC=C(C)C)c1cccc2ccccc12 (configuration not stated)
4

# query: GHS category of entry `C=CC(=O)OCC1(CC)COCOC1`
5

# query: GHS category of entry `O=C(c1ccc(Cl)cc1)N1CCN=C1c1ccccc1`
4

# query: GHS category of entry `CCCN[C@H]1CCc2nc(N)sc2C1`
4

# query: GHS category of entry CCCCCCCCCCCCCCCCOC(=O)C(CC)CCCC (configuration not stated)
5

# query: GHS category of entry COc1ccc2c(c1)CCN(c1ccccc1)C2c1cccc(C(F)(F)F)c1 (configuration not stated)
4

# query: GHS category of entry `C[C@H]1O[C@]2(CS1)CN1CCC2CC1`
3

# query: GHS category of entry CC(C)CC1(C)OCC(CO)O1 (configuration not stated)
5

# query: GHS category of entry CCC(=NOC/C=C/Cl)C1=C(O)CC(C2CCOCC2)CC1=O (configuration not stated)
5

# query: GHS category of entry `C1CCCCCC2=C(CCCC1)CCCO2`
5

# query: GHS category of entry `CC(C)[N+](C)(CCC(C(N)=O)(c1ccccc1)c1ccccc1)C(C)C`
5
